Target: ZFP SBS#302 (synthetic)
Sequence (chain, as listed by the source): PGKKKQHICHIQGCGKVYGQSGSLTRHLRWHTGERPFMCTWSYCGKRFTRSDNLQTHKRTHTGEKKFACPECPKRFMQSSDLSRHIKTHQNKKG
Assay: EMSA
Conditions: tags: MBP fusion
OBSERVATION TYPE: Kd (nM)

>>> data_value("GCTTAGGCA (dsDNA) DNA 1: GCTTAGGCA DNA 2: TGCCTAAGC")
75
